ASSAY OVERVIEW: Estimated solubility by aliquot addition of solvent, visual inspection
Format: physicochemical
SETTINGS: aqueous with cosolvent or surfactant or cyclodextrin, thermodynamic from solid; Methanol:Water 1:1, ~63 °C; estimated
ENDPOINT: solubility

Query block: Give the measured solubility for CCCCCCCCCCCCCCCCOCCCOP(=O)(O)CO[C@H](CO)Cn1ccc(N)nc1=O [Form II]
Result block: < 14 mg/mL

---

ASSAY OVERVIEW: Estimated solubility by aliquot addition of solvent, visual inspection
Type: physicochemical
SETTINGS: organic solvent or mixture, thermodynamic from solid; Trifluoroethanol; estimate
ENDPOINT: solubility

Query block: Give the measured solubility for CCCCCCCCCCCCCCCCOCCCOP(=O)(O)CO[C@H](CO)Cn1ccc(N)nc1=O [Form II]
Result block: > 5000 µg/mL
